These data points were gathered from patent US7282522B2.

Below, each entry is listed with its recorded Elastase expression (%).
- System: elastase
- PROTOCOL: Inhibition of elastase expression in human fibroblasts (ELISA kit)
- Type: cell-based
- MEASUREMENT_CONTEXT: 10^−4M, 24 hours, serum-free medium, relative to control group = 100
PROPERTY_MEASURED: Elastase expression (%)

1) CN(O)C(=O)c1ccc(NC(=O)C23CC4CC(CC(C4)C2)C3)cc1 [Example 11]	65
2) CC(C)c1ccc(C(=O)N(C)c2ccc(C(=O)NO)cc2)cc1 [Example 17]	82
3) Cc1cccc(C(=O)Nc2ccc(CC(=O)NO)cc2)c1 [Example 25]	80
4) CN(O)C(=O)Cc1ccc(NC(=O)C23CC4CC(CC(C4)C2)C3)cc1 [Example 33]	82
5) Cc1ccc(N(C)C(=O)c2ccc(C(=O)NO)cc2)cc1 [Example 46]	80
6) Cc1cccc(C(=O)N(C)c2ccc(C(=O)NO)cc2)c1 [Example 14]	75
7) CCCc1ccc(C(=O)N(C)c2ccc(C(=O)NO)cc2)cc1 [Example 16]	77
8) CCCCc1ccc(NC(=O)c2ccc(C(=O)NO)cc2)cc1 [Example 40]	90
9) CC(C)(C)c1ccc(C(=O)Nc2ccc(C(=O)NO)cc2)cc1 [Example 8]	69
10) CC(C)(C)c1ccc(C(=O)Nc2ccc(CC(=O)NO)cc2)cc1 [Example 30]	69
11) CC1=C(/C=C/C(C)=C/C=C/C(C)=C/C(=O)O)C(C)(C)CCC1 [Retinoic acid, retinoic acid, reference compound]	68
12) Cc1ccc(NC(=O)c2ccc(C(=O)NO)cc2)cc1 [Example 35]	71
13) CCCCc1ccc(C(=O)Nc2ccc(C(=O)NO)cc2)cc1 [Example 7]	77
14) CCCc1ccc(C(=O)Nc2ccc(CC(=O)NO)cc2)cc1 [Example 27]	87
15) CC(C)c1ccc(C(=O)Nc2ccc(C(=O)NO)cc2)cc1 [Example 6]	79
16) O=C(NO)c1ccc(C(=O)NC23CC4CC(CC(C4)C2)C3)cc1 [Example 43]	70
17) CN(C(=O)c1ccc(C(=O)NO)cc1)c1ccc(C(C)(C)C)cc1 [Example 52]	87
18) Cc1ccc(C(=O)N(C)c2ccc(C(=O)NO)cc2)cc1 [Example 13]	84
19) CN(C(=O)c1ccc(C(=O)NO)cc1)C12CC3CC(CC(C3)C1)C2 [Example 54]	67
20) Cc1ccc(C(=O)Nc2ccc(C(=O)NO)cc2)cc1 [Example 2]	78
21) CC(C)(C)c1ccc(NC(=O)c2ccc(C(=O)NO)cc2)cc1 [Example 41]	78
22) O=C(NO)c1ccc(NC(=O)c2ccccc2)cc1 [Example 1]	79
23) CCc1ccc(NC(=O)c2ccc(C(=O)NO)cc2)cc1 [Example 37]	80
24) CCCc1ccc(N(C)C(=O)c2ccc(C(=O)NO)cc2)cc1 [Example 49]	87
25) CCCCc1ccc(C(=O)N(C)c2ccc(C(=O)NO)cc2)cc1 [Example 18]	79
26) O=C(Cc1ccc(NC(=O)c2ccccc2)cc1)NO [Example 23]	79
27) CN(O)C(=O)c1ccc(N(C)C(=O)C23CC4CC(CC(C4)C2)C3)cc1 [Example 22]	70
28) Cc1ccc(N(C)C(=O)c2ccc(C(=O)NO)cc2)cc1C [Example 53]	80
29) CC(C)c1ccc(N(C)C(=O)c2ccc(C(=O)NO)cc2)cc1 [Example 50]	78
30) CCCc1ccc(C(=O)Nc2ccc(C(=O)NO)cc2)cc1 [Example 5]	78
31) Cc1ccc(NC(=O)c2ccc(C(=O)NO)cc2)cc1C [Example 42]	76
32) Cc1cccc(NC(=O)c2ccc(C(=O)NO)cc2)c1 [Example 36]	79
33) CCCc1ccc(NC(=O)c2ccc(C(=O)NO)cc2)cc1 [Example 38]	69
34) CN(O)C(=O)c1ccc(C(=O)N(C)C23CC4CC(CC(C4)C2)C3)cc1 [Example 55]	70
35) CCc1ccc(C(=O)N(C)c2ccc(C(=O)NO)cc2)cc1 [Example 15]	76
36) CN(C(=O)C12CC3CC(CC(C3)C1)C2)c1ccc(C(=O)NO)cc1 [Example 21]	78
37) Cc1ccc(C(=O)Nc2ccc(C(=O)NO)cc2)cc1C [Example 9]	67
38) CCc1ccc(C(=O)Nc2ccc(C(=O)NO)cc2)cc1 [Example 4]	70
39) Cc1ccc(C(=O)N(C)c2ccc(C(=O)NO)cc2)cc1C [Example 20]	78

---

- System: collagenase
- PROTOCOL: Inhibition of collagenase expression in human fibroblasts (ELISA kit)
- Type: cell-based
- MEASUREMENT_CONTEXT: 10^−4M, 24 hours, serum-free medium, relative to control group = 100
- Description: Human fibroblasts were seeded into 96-well microtiter plate at 5,000 cells per well and then cultured to 90% of growth in DMEM (Dulbecco's Modified Eagle's Media) supplemented with 2.5% fetal bovine serum. […] For each culture fluid, collagenase production was measured with collagenase kit (commercialized by AmershamPharmacia Biotech). […] The absorbance of the yellow 96-well plate was measured at 405 nm using absorptiometer. Collagenase expression was calculated by the following equation 1. […]
This listing pairs compounds with measured Collagenase expression (%).
PROPERTY_MEASURED: Collagenase expression (%)

1) Cc1cccc(C(=O)Nc2ccc(C(=O)NO)cc2)c1	80
2) Cc1ccc(C(=O)Nc2ccc(CC(=O)NO)cc2)cc1C	81
3) CC(C)c1ccc(NC(=O)c2ccc(C(=O)NO)cc2)cc1	78
4) CN(O)C(=O)c1ccc(NC(=O)C23CC4CC(CC(C4)C2)C3)cc1	81

---

# Collagenase expression (%) values compiled below
- System: collagenase
- PROTOCOL: Inhibition of collagenase expression in human fibroblasts (ELISA kit)
- Format: cell-based
- MEASUREMENT_CONTEXT: 10^−4M, 24 hours, serum-free medium, relative to control group = 100
PROPERTY_MEASURED: Collagenase expression (%)

1. CC(C)(C)c1ccc(NC(=O)c2ccc(C(=O)NO)cc2)cc1	88
2. Cc1ccc(NC(=O)c2ccc(C(=O)NO)cc2)cc1	90
3. CN(O)C(=O)c1ccc(C(=O)N(C)C23CC4CC(CC(C4)C2)C3)cc1	85
4. Cc1ccc(N(C)C(=O)c2ccc(C(=O)NO)cc2)cc1C	75
5. CN(O)C(=O)c1ccc(N(C)C(=O)C23CC4CC(CC(C4)C2)C3)cc1	77
6. Cc1cccc(N(C)C(=O)c2ccc(C(=O)NO)cc2)c1	79
7. Cc1ccc(C(=O)N(C)c2ccc(C(=O)NO)cc2)cc1C	68
8. CCCCc1ccc(C(=O)N(C)c2ccc(C(=O)NO)cc2)cc1	78
9. O=C(NO)c1ccc(NC(=O)c2ccccc2)cc1	78
10. CN(C(=O)c1ccc(C(C)(C)C)cc1)c1ccc(C(=O)NO)cc1	70
11. CC(C)c1ccc(N(C)C(=O)c2ccc(C(=O)NO)cc2)cc1	80
12. Cc1ccc(C(=O)Nc2ccc(CC(=O)NO)cc2)cc1	76
13. CCc1ccc(C(=O)N(C)c2ccc(C(=O)NO)cc2)cc1	79
14. CC(C)(C)c1ccc(C(=O)Nc2ccc(CC(=O)NO)cc2)cc1	83
15. CN(C(=O)C12CC3CC(CC(C3)C1)C2)c1ccc(C(=O)NO)cc1	69
16. CC1=C(/C=C/C(C)=C/C=C/C(C)=C/CO)C(C)(C)CCC1 [Retinol, retinol, reference compound]	85
17. CC(C)c1ccc(C(=O)N(C)c2ccc(C(=O)NO)cc2)cc1	81
18. Cc1ccc(C(=O)N(C)c2ccc(C(=O)NO)cc2)cc1	70
19. Cc1cccc(C(=O)Nc2ccc(CC(=O)NO)cc2)c1	70
20. Cc1ccc(N(C)C(=O)c2ccc(C(=O)NO)cc2)cc1	83
21. CCCc1ccc(C(=O)Nc2ccc(CC(=O)NO)cc2)cc1	87
22. O=C(NO)c1ccc(C(=O)NC23CC4CC(CC(C4)C2)C3)cc1	77
23. CCc1ccc(N(C)C(=O)c2ccc(C(=O)NO)cc2)cc1	87
24. CCCc1ccc(C(=O)N(C)c2ccc(C(=O)NO)cc2)cc1	80
25. Cc1ccc(C(=O)Nc2ccc(C(=O)NO)cc2)cc1C	65
26. CCc1ccc(C(=O)Nc2ccc(C(=O)NO)cc2)cc1	78
27. CCCCc1ccc(N(C)C(=O)c2ccc(C(=O)NO)cc2)cc1	76
28. CCc1ccc(C(=O)Nc2ccc(CC(=O)NO)cc2)cc1	78
29. CCCCc1ccc(C(=O)Nc2ccc(CC(=O)NO)cc2)cc1	77

---

- TEST_TARGET: RARγ (Homo sapiens, UniProt P13631)
- Construct: expressed in transfected cells; host or cells: CV-1 cells (ATCC)
- Sequence (P13631 whole entry, species assumed): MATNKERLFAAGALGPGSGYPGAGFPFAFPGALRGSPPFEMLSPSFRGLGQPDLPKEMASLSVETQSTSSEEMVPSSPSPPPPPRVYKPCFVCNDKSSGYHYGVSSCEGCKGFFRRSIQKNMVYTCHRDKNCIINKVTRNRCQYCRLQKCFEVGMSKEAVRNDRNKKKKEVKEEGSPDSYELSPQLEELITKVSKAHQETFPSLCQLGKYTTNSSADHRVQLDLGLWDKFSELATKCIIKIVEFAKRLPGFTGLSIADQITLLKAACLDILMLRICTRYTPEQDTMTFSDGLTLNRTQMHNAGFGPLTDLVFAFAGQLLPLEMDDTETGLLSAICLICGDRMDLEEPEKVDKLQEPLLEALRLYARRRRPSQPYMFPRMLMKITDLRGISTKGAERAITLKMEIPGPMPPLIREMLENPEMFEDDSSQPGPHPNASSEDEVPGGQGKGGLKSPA
- PROTOCOL: RARE-luciferase reporter assay in transfected CV-1 cells (affinity to retinoic acid receptor), RARγ
- Assay type: cell-based
- MEASUREMENT_CONTEXT: treated 24 hours at final concentration 10^−4M, control group 5000
Catalogue of Luciferase activity RARγ values
PROPERTY_MEASURED: Luciferase activity RARγ

1. O=C(Cc1ccc(NC(=O)C23CC4CC(CC(C4)C2)C3)cc1)NO [Example 32]	10000
2. CN(C(=O)c1ccc(C(=O)NO)cc1)c1ccc(C(C)(C)C)cc1 [Example 52]	12130
3. Cc1cccc(C(=O)Nc2ccc(CC(=O)NO)cc2)c1 [Example 25]	12100
4. CN(C(=O)c1ccc(C(C)(C)C)cc1)c1ccc(C(=O)NO)cc1 [Example 19]	11200
5. CCCCc1ccc(C(=O)Nc2ccc(CC(=O)NO)cc2)cc1 [Example 29]	10600
6. Cc1cccc(C(=O)Nc2ccc(C(=O)NO)cc2)c1 [Example 3]	10000
7. Cc1ccc(N(C)C(=O)c2ccc(C(=O)NO)cc2)cc1 [Example 46]	11123
8. Cc1ccc(C(=O)Nc2ccc(CC(=O)NO)cc2)cc1 [Example 24]	11210
9. CCc1ccc(N(C)C(=O)c2ccc(C(=O)NO)cc2)cc1 [Example 48]	11200
10. CC(C)c1ccc(C(=O)Nc2ccc(CC(=O)NO)cc2)cc1 [Example 28]	10700
11. CN(C(=O)c1ccccc1)c1ccc(C(=O)NO)cc1 [Example 12]	11300
12. Cc1ccc(NC(=O)c2ccc(C(=O)NO)cc2)cc1 [Example 35]	11300
13. CCCc1ccc(C(=O)Nc2ccc(CC(=O)NO)cc2)cc1 [Example 27]	11300
14. Cc1ccc(C(=O)Nc2ccc(CC(=O)NO)cc2)cc1C [Example 31]	10700
15. Cc1ccc(NC(=O)c2ccc(C(=O)NO)cc2)cc1C [Example 42]	11200
16. CCCc1ccc(NC(=O)c2ccc(C(=O)NO)cc2)cc1 [Example 38]	10400
17. CN(C(=O)c1ccc(C(=O)NO)cc1)C12CC3CC(CC(C3)C1)C2 [Example 54]	11000
18. CN(O)C(=O)c1ccc(N(C)C(=O)C23CC4CC(CC(C4)C2)C3)cc1 [Example 22]	12400
